Data provenance: patent US7713971B2

# System: insulin-resistant male rat (Ico: ZUCKER-fa/fa)
# experiment description: Normalization of metabolic parameters (cholesterol, plasma triglycerides) in insulin-resistant rat
# Assay type: in vivo
# test settings: 96 h; at 10 mg/kg, oral route, once per day for four days, Zucker fa/fa rat unfed 16-18 hours; read-out: Plasma triglycerides
measurement name: change in vivo at 10 mg/kg

CCCCCCCn1nc(OCCCCCc2cccc(OC(C)(C)C(=O)OCC)c2)c(=O)n(CCCC)c1=O : -63%
CCCCCCCn1nc(NCCCCc2cccc(OC(C)(C)C(=O)O)c2)c(=O)n(CCCC(F)(F)F)c1=O : -7%
CCCCCCCN(CCc1ccc(OC(C)(C)C(=O)O)cc1)c1nn(C)c(=O)n(C)c1=O : -26%
CCOC(=O)C(C)(C)Oc1cccc(CCCNc2nn(C)c(=O)n(CCCC(F)(F)F)c2=O)c1 : -13%
CCCCCCCn1nc(NCCc2ccc(SC(C)(C)C(=O)OCC)cc2)c(=O)n(C)c1=O : -29%

Would you mind telling me what change in vivo at 10 mg/kg value was observed for `CCCCn1c(=O)c(OCCCCCc2cccc(OC(C)(C)C(=O)OCC)c2)nn(C)c1=O` ? -37%

Which change in vivo at 10 mg/kg value is on record for `CCCCn1nc(OCCCCCc2cccc(OC(C)(C)C(=O)OCC)c2)c(=O)n(CCCC)c1=O` ? -28%

Endpoint output: change in vivo at 10 mg/kg of `CCCCCCCn1nc(NCCc2ccc(SC(C)(C)C(=O)O)cc2)c(=O)n(C)c1=O` . Value? -73%

* * *

# system tested: human PPARδ (Homo sapiens, UniProt Q03181)
# experiment description: Reporter gene transactivation, hPPAR-GAL4 delta
# test settings: transfected Cos-7 cells, Gal-4 luciferase reporter, 24 hours treatment
measurement name: EC50

Example results:
CCCCCCCn1nc(OCCCCc2ccc(OC(C)(C)C(=O)OCC)cc2)c(=O)n(C)c1=O : 3 to 10 µM
CCOC(=O)C(C)(C)Oc1ccc(CCN(CCCc2ccccc2)c2nn(C)c(=O)n(C)c2=O)cc1 : > 10 µM

Entry `CCCCCCCn1c(=O)c(NCCc2ccc(OC(C)(C)C(=O)OCC)cc2)nn(C)c1=O` : reported EC50 = ? > 10 µM

Request the reported EC50 associated with `CCOC(=O)C(C)(C)Oc1cccc(CCCCNc2nn(CCCC(F)(F)F)c(=O)n(CC=C(C)C)c2=O)c1` 3 to 10 µM

# lookup: EC50 of `CCCCCCCn1nc(NCCOc2ccc(OC(C)(C)C(=O)OCC)cc2)c(=O)n(C)c1=O` > 10 µM

Tell me the measured EC50 of `CCCCCCCn1nc(NCCCCc2cccc(OC(C)(C)C(=O)O)c2)c(=O)n(CCCC(F)(F)F)c1=O` , please. 1 to 3 µM

* * *

# system tested: human PPARδ (Homo sapiens, UniProt Q03181)
# Sequence (Q03181 211-439 limits assumed): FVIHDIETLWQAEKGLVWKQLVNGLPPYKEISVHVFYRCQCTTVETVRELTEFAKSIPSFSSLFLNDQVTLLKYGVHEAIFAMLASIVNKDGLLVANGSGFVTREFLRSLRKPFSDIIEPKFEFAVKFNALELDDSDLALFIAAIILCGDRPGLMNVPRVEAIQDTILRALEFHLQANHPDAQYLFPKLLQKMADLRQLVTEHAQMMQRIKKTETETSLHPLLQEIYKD
# experiment description: Reporter gene transactivation, hPPAR-GAL4 delta
# test settings: transfected Cos-7 cells, Gal-4 luciferase reporter, 24 hours treatment
pEC50: −log10 of the molar value.
measurement name: pEC50

Solved cases below.
CCCCCCCn1nc(OCCCc2ccc(OC(C)(C)C(=O)OCC)cc2)c(=O)n(C)c1=O [Example 27] : 5.00 to 5.52
CCOC(=O)C(C)(C)Oc1cccc(OCCCOc2nn(CCCC(F)(F)F)c(=O)n(CCCC(F)(F)F)c2=O)c1 [Example 35] : ~5.00

Recorded pEC50 for CCCCCCCn1nc(NCCOc2ccc(OC(C)(C)C(=O)OCC)cc2)c(=O)n(CCCCCCC)c1=O [Example 42] , please? 5.52 to 6.00

Which measured pEC50 value corresponds to CCCCCCCN(CCc1ccc(OC(C)(C)C(=O)OCC)cc1)c1nn(C)c(=O)n(C)c1=O [Example 112] ? 5.52 to 6.00
